Tested on: Vero cells
Test: Vero cell toxicity assay (Alamar Blue)
Details: 4 days, mean (SD in text)
One threshold, 5 µM, splits the recorded TC50, Vero cell toxicity assay values: lower ones are Yes, equal or higher ones are No.

>>> qualitative_label("O=C1N[C@@H]2C(=C[C@H](O)[C@@H](O)[C@H]2O)c2cc3c(c(O)c21)OCO3")
"Yes"
>>> qualitative_label("O[C@H]1[C@H]2c3cc4c(cc3CN3CCC(=C[C@@H]1O)[C@H]23)OCO4")
"No"
>>> qualitative_label("CN1CCC2=C[C@H](O)[C@H]3OC(=O)c4cc5c(cc4[C@H]3[C@@H]21)OCO5")
"No"

Now look at this one.
(Q) Hello, is TC50, Vero cell toxicity assay of the following compound strictly smaller than 5 µM? COC1C=CC23c4cc5c(cc4CN(CC2O)C3C1)OCO5 (centres unmarked)
(A) No

Data credit: paper PMC7288428
